meta.source: patent US10183015B2

- test description: PK parameters for representative compounds (i.v. and p.o.), Table 4
- settings: in vivo, iv; i.v. @ 2 mg/kg; read-out: Terminal t1/2 (converted)

# compound, half-life
data = [
    ("CC(C)(C)c1cc(-c2nc(-c3ccc(NS(=O)(=O)C(F)(F)F)cc3Cl)cs2)ccn1 [Compound 5]", "2.51 h"),
]

###

- Test system: HepG2 cells
- test description: HepG2 cell viability under serum-free conditions (MTS)
- Format: cell-based
- settings: Homo sapiens, HepG2, 72 h; 20 μM, 3 days, DMEM without FBS; read-out: Average Viability (% Inhibition, n = 3)
- Method: Cancer cells such as HepG2 cells depend on SREBP activation and de novo lipogenesis to survive, particularly in low serum or serum-free conditions. […] For viability measurements, HepG2 cells were seeded at 5,000 cells per well in 96-well plates in DMEM supplemented with 10% FBS. […] Viability was measured by MTS […]. […]
List of cytotoxicity at 20 µM values.

# compound, units of measure, cytotoxicity at 20 µM
measured = [
    ("O=C(c1ccc(-c2nc(-c3ccc(NS(=O)(=O)C(F)(F)F)cc3Cl)cs2)cc1)N1CCCCC1 [Compound 67]", "%", 20),
    ("CC(C)Cc1cc(-c2nc(-c3ccc(NS(=O)(=O)C(F)(F)F)cc3Cl)cs2)ccn1 [Compound 37]", "%", 95),
    ("O=S(=O)(Nc1ccc(-c2csc(-c3ccnc(Cc4ccccc4)c3)n2)c(Cl)c1)C(F)(F)F [Compound 60]", "%", 100),
    ("CC(C)(C)c1cc(-c2nc(-c3ccc(NS(=O)(=O)C(F)(F)F)cc3Cl)cs2)ccn1 [Compound 5]", "%", 99.2),
    ("O=S(=O)(Nc1ccc(-c2csc(-c3ccnc(NS(=O)(=O)C(F)(F)F)c3)n2)c(Cl)c1)C(F)(F)F [Compound 66]", "%", 11),
    ("CCCc1cc(-c2nc(-c3ccc(NS(=O)(=O)C(F)(F)F)c(OC)c3)cs2)ccn1 [Compound 58]", "%", 67.9),
    ("CS(=O)(=O)Nc1cc(-c2nc(-c3ccc(NS(=O)(=O)C(F)(F)F)cc3Cl)cs2)ccn1 [Compound 62]", "%", 0),
]

###

- test description: Short-term Paigen-diet NASH mouse model: Compound #37 plasma concentration 1 hour after final dose
- Format: in vivo
- settings: male, C57Bl/6J, mouse, plasma, oral; 40 mg/kg, day 9, 4 animals

# compound, concentration at 1 h
rows = [
    ("CC(C)Cc1cc(-c2nc(-c3ccc(NS(=O)(=O)C(F)(F)F)cc3Cl)cs2)ccn1 [Compound 37]", "136 µM"),
]

###

- test description: Short-term Paigen-diet NASH mouse model: Compound #37 plasma concentration 1 hour after final dose
- Type: in vivo
- settings: male, C57Bl/6J, mouse, plasma, oral; 20 mg/kg, day 21

# structure smiles, concentration at 1 h (µM)
records = [
    ("CC(C)Cc1cc(-c2nc(-c3ccc(NS(=O)(=O)C(F)(F)F)cc3Cl)cs2)ccn1", 112),
]

###

- test description: PK parameters for representative compounds (i.v. and p.o.), Table 4
- settings: in vivo, iv; i.v. @ 2 mg/kg
readout: clearance (mL/min/kg)

# compound, units of measure, recorded number
rows = [
    ("CC(C)(C)c1cc(-c2nc(-c3ccc(NS(=O)(=O)C(F)(F)F)cc3Cl)cs2)ccn1 [Compound 5]", "mL/min/kg", 1.58),
]

###

- Tested on: HepG2 cells
- test description: HepG2 cell viability under serum-free conditions (MTS)
- Format: cell-based
- settings: Homo sapiens, HepG2, 72 h; 5 μM, 3 days, DMEM without FBS; read-out: Average Viability (% Inhibition, n = 3)
List of cytotoxicity at 5 µM values.

# structure smiles, cytotoxicity at 5 µM / %
data = [
    ("O=S(=O)(Nc1ccc(-c2csc(-c3ccc(C(F)(F)F)c(OCc4ccccc4)c3)n2)c(Cl)c1)C(F)(F)F", 99),
    ("O=S(=O)(Nc1ccc(-c2csc(-c3ccc4c(c3)CCO4)n2)c(Cl)c1)C(F)(F)F", 82),
    ("Cc1ccc(S(=O)(=O)Nc2cccc(-c3nc(-c4ccc(NS(=O)(=O)C(F)(F)F)cc4Cl)cs3)c2)cc1", 87),
    ("O=S(=O)(Nc1ccc(-c2csc(-c3cccc4ccccc34)n2)c(Cl)c1)C(F)(F)F", 97),
    ("O=S(=O)(Nc1ccc(-c2csc(-c3cccc4[nH]ccc34)n2)c(Cl)c1)C(F)(F)F", 86),
    ("CC(C)Cc1cc(-c2nc(-c3ccc(NS(=O)(=O)C(F)(F)F)cc3Cl)cs2)ccn1", 94),
]

###

- test description: PK parameters for representative compounds (i.v. and p.o.), Table 4
- settings: in vivo, po; p.o. @ 10 mg/kg vs i.v. @ 2 mg/kg

# structure smiles, bioavailability
data = [
    ("CC(C)(C)c1cc(-c2nc(-c3ccc(NS(=O)(=O)C(F)(F)F)cc3Cl)cs2)ccn1", "149%"),
]
